# Tested system: SUR1-C717S/Kir6.2 channels (Rattus norvegicus, UniProt P70673+Q09429, C717S)
# Construct: A full-length Kir cDNA and a full-length SUR cDNA were subcloned into the mammalian expression vector
# Sequence (Q09429 whole entry C717S): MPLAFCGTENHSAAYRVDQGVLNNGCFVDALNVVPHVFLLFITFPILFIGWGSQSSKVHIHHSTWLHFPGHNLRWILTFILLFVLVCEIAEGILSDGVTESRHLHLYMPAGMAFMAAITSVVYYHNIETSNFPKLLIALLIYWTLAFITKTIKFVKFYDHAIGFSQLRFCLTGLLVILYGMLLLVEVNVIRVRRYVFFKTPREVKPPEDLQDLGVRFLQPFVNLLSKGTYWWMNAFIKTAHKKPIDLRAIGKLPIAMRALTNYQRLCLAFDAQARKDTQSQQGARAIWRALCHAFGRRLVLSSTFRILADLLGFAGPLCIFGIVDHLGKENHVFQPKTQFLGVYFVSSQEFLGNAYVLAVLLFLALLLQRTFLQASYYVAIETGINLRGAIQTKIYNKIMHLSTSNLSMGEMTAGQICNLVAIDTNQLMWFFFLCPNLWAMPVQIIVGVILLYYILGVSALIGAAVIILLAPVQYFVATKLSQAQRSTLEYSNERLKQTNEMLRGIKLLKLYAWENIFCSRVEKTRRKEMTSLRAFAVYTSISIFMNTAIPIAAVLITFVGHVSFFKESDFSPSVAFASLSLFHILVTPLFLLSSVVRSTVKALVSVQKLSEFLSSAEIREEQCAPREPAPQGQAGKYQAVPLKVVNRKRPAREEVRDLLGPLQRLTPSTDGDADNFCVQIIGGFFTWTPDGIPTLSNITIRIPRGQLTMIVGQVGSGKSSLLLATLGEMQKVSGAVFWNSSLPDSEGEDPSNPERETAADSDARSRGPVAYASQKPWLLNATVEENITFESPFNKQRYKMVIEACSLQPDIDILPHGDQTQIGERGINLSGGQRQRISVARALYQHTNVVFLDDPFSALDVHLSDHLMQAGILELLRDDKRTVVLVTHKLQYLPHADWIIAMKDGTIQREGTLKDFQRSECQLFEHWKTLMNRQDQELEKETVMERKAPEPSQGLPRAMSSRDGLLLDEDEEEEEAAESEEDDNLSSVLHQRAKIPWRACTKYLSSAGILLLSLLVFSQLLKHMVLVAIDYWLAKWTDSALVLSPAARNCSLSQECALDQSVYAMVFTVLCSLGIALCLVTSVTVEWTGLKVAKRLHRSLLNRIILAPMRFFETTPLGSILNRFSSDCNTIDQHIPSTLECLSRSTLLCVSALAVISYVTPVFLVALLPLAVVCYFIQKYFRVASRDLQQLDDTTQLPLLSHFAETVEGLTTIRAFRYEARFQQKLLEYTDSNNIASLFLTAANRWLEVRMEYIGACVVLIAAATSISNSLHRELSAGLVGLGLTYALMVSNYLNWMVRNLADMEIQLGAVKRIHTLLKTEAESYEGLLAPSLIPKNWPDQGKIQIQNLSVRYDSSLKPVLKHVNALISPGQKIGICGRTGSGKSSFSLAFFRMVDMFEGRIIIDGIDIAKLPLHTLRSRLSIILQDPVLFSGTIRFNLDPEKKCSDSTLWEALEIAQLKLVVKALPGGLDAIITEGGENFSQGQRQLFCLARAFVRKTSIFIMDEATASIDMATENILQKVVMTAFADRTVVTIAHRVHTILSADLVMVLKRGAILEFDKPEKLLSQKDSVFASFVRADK
# Sequence (P70673 whole entry): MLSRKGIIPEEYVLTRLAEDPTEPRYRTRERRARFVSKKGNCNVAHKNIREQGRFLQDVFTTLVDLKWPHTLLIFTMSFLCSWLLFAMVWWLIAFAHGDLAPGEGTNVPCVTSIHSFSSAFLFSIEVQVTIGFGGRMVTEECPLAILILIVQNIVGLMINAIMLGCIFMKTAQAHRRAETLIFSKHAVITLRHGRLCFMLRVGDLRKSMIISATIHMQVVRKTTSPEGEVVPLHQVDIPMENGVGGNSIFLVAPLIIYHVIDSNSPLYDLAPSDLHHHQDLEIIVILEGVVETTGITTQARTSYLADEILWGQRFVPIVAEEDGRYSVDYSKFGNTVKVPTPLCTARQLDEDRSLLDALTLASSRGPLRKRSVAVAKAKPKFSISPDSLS
# Test description: Inside-out patch recording of mutated channels expressed in COS7 cells
# Conditions: n = 7; read-out: ATP-sensitivity IC50
Quantity measured: IC50 (µM)
Give the number; µM is assumed, so skip it.

Per the records, this compound ( Nc1ncnc2c1ncn2[C@@H]1O[C@H](COP(=O)(O)OP(=O)(O)OP(=O)(O)O)[C@@H](O)[C@H]1O ) has IC50 equal to 13.1

---

# Tested system: KATP channels in large DRG neurons (Rattus norvegicus, UniProt P70673+Q09429)
# Construct: native KATP channels in large DRG neurons; endogenous in cells; host or cells: acutely dissociated large-diameter neurons from rat L4/L5 dorsal root ganglia (sham-operated or spinal nerve ligated animals)
# Sequence (Q09429 whole entry): as the sequence (Q09429 whole entry C717S) above, with S717C counted along it
# Sequence (P70673 whole entry): as the sequence (P70673 whole entry) above
# Test description: Excised inside-out (cell-free) patch-clamp recording of KATP channel activity
# Format: biochemical
# Conditions: SNL neurons; various intracellular ATP concentrations; n = 5; read-out: ATP sensitivity IC50
Quantity measured: pIC50
Conceptually, pIC50 converts a concentration in mol/L into minus its log10.

Per the records, this molecule ( Nc1ncnc2c1ncn2[C@@H]1O[C@H](COP(=O)(O)OP(=O)(O)OP(=O)(O)O)[C@@H](O)[C@H]1O ) has pIC50 equal to 4.74
